system: B. subtilis EC1524; assay: Micro-broth dilution and drop plate antimicrobial susceptibility test; assay type: cell-based, Bacillus subtilis; settings: Bacillus subtilis, EC1524
Reported IC50 values for the following molecules.
I'd appreciate it if you included the unit after the number.

Known results for molecules:
record_smiles=CC(C)=CCC[C@H](C)CC(=O)N[C@H]1[C@H](O[C@H]2O[C@H](CO)[C@@H](O)[C@H](O)[C@H]2NC(=O)C[C@@H](C)CCC=C(C)C)O[C@H](C[C@@H](O)[C@H]2O[C@@H](n3ccc(=O)[nH]c3=O)[C@H](O)[C@@H]2O)[C@H](O)[C@@H]1O system_name="B. subtilis EC1524" value="0.36 µg/mL"
record_smiles=CCCCCCCCCC(=O)N[C@H]1[C@H](O[C@H]2O[C@H](CO)[C@@H](O)[C@H](O)[C@H]2NC(=O)CCCCCCCCC)O[C@H](C[C@@H](O)[C@H]2O[C@@H](n3ccc(=O)[nH]c3=O)[C@H](O)[C@@H]2O)[C@H](O)[C@@H]1O system_name="B. subtilis EC1524" value="0.12 µg/mL"

Pending molecule:
Dear colleague, please send me the reported IC50 for CCCCCCCCCCC(=O)N[C@H]1[C@H](O[C@H]2O[C@H](CO)[C@@H](O)[C@H](O)[C@H]2NC(=O)CCCCCCCCCC)O[C@H](C[C@@H](O)[C@H]2O[C@@H](n3ccc(=O)[nH]c3=O)[C@H](O)[C@@H]2O)[C@H](O)[C@@H]1O when you can.
0.85 µg/mL
